Attribute: pEC50
Target: FSHR (Homo sapiens)
Sequence (P23945 18-695): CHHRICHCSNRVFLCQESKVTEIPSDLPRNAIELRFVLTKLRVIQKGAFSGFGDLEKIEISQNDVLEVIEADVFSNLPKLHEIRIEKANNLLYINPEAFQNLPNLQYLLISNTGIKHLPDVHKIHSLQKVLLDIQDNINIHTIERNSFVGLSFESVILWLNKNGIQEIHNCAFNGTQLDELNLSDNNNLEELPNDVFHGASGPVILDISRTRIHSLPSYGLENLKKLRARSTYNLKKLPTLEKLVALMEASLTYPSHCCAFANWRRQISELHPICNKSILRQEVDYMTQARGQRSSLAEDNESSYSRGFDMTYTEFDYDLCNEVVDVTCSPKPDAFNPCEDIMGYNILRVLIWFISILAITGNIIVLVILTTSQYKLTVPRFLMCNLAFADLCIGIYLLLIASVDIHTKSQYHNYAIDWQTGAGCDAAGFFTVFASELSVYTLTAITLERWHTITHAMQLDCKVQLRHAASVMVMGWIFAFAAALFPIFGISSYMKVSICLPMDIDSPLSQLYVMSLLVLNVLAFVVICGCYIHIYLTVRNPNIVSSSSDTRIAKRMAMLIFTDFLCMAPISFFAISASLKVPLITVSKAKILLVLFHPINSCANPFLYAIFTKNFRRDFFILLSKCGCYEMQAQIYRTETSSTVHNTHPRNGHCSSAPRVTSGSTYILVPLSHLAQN
Assay: EC50 of cyclic AMP production in CHO FSHR cells + EC20 FSH (Assay A)
Settings: cyclic AMP production in CHO FSHR cells + EC20 FSH (0.265 pM), HTRF
pEC50: −log10 of the molar value.
outcome.measure: pEC50

>>> assay_result("COc1cc2c(cc1-c1cnn(CC(O)CO)c1)-c1c(c(C(=O)N(C)C(C)(C)C)nn1-c1cc(Cl)cc(Cl)c1)CO2 (single isomer, unassigned) [Compound 191]")
"7.00 to 8.00"
>>> assay_result("COc1cc2c(cc1OC(C)CO)-c1c(c(C(=O)N(C)C(C)(C)C)nn1-c1ccsc1)CO2 (stereo not shown)")
"7.00 to 8.00"
>>> assay_result("COc1cc2c(cc1-c1cncc(C(N)=O)c1C)-c1c(c(C(=O)N(C)C(C)(C)C)nn1-c1cc(Cl)cc(Cl)c1)CO2")
"> 8.00"
>>> assay_result("COc1cc2c(cc1-c1cccnc1F)-c1c(c(C(=O)N(C)C(C)(C)C)nn1-c1cc(Cl)cc(Cl)c1)CO2")
"> 8.00"
>>> assay_result("COc1cc(OC)cc(-n2nc(C(=O)N(C)C(C)(C)C)c3c2-c2cc(-c4ccccn4)c(OC)cc2OC3)c1")
"7.00 to 8.00"
>>> assay_result("COc1cc2c(cc1-c1cncc(CO)c1)-c1c(c(C(=O)N(C)C(C)(C)C)nn1-c1cc(Cl)cc(Cl)c1)CO2")
"> 8.00"
>>> assay_result("COc1cc2c(cc1-c1cnn(CC(N)=O)c1)-c1c(c(C(=O)N3CC[S+]([O-])CC3(C)C)nn1-c1cc(F)cc(F)c1)CO2 (stereo not shown)")
"7.00 to 8.00"
>>> assay_result("COc1cc2c(cc1-c1cncc(C(=O)O)c1)-c1c(c(C(=O)N(C)C(C)(C)C#N)nn1-c1cc(F)cc(F)c1)CO2")
"> 8.00"
>>> assay_result("COc1cc2c(cc1-c1cncc(N)c1)-c1c(c(C(=O)N(C)C(C)(C)C)nn1-c1cc(Cl)cc(Cl)c1)CO2")
"> 8.00"
>>> assay_result("COc1cc2c(cc1-c1ccnc(C#N)c1)-c1c(c(C(=O)N(C)C(C)(C)C)nn1-c1cc(Cl)cc(Cl)c1)CO2")
"> 8.00"
>>> assay_result("COc1cc2c(cc1-c1ccn(C)n1)-c1c(c(C(=O)N3CCC(O)CC3(C)C)nn1-c1cc(Cl)cc(Cl)c1)CO2 (stereo not shown)")
"7.00 to 8.00"
>>> assay_result("COc1cc2c(cc1-c1cncc(C(N)=O)c1)-c1c(c(C(=O)N(C)C(C)(C)C)nn1-c1cc(Cl)cc(Cl)c1)CO2")
"> 8.00"
>>> assay_result("COc1cc(Cl)cc(-n2nc(C(=O)N3CCOCC3(C)C)c3c2-c2cc(-c4cncc(C#N)c4)c(OC)cc2OC3)c1")
"> 8.00"

Value source: patent US10941152B2
